Threshold check on logP: strictly below 2 is rule met; on or above 2 is rule not met.

Reference set, count: 4
| molecule | qualitative_label |
| --- | --- |
| COc1cccc(/C=C/[N+](=O)[O-])c1 | rule not met |
| c1ccc(-c2cccc(-c3ccccc3)n2)cc1 | rule not met |
| Cc1ccc([N+](=O)[O-])cc1 | rule not met |
| Fc1c(F)c(F)c(F)c(F)c1F | rule not met |

Strictly below 2: is that where logP of CC(C)(S)[C@@H](N)C(=O)O sits? rule met

How about C=C1C(=O)OC2CC(C)C3C=CC(=O)C3(C)C(O)C12 (stereo not given) ? rule met

How about CC1=c2[nH]c3c(c2CCN1)C=CC(=O)C=3 ? rule not met

How about O=C(O)Cc1ccc(Cl)cc1 ? rule not met

How about OC[C@H]1O[C@@H](n2cnc3c(O)ncnc32)[C@H](O)[C@@H]1O ? rule met
